Taken from the supplement of paper PMC5908809.

- System: NK-YS (IL-2 2.5 ng/mL);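 further: normalised to DMSO-only wells as negative and benzethonium chloride as positive control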
- assay.overview: percent inhibition of viability; higher = more inhibition
- experimental.conditions: 72 h; 10000 nM
attribute.measured: percent inhibition of viability (%)

• Cc1c(N)nc([C@H](CC(N)=O)NC[C@H](N)C(N)=O)nc1C(=O)N[C@H](C(=O)N[C@H](C)[C@@H](O)[C@H](C)C(=O)N[C@H](C(=O)NCCc1nc(-c2nc(C(=O)NCCC[S+](C)C)cs2)cs1)[C@@H](C)O)[C@@H](OC1OC(CO)C(O)C(O)C1OC1OC(CO)C(O)C(OC(N)=O)C1O)c1cnc[nH]1 (some centres undefined) [Bleomycin] (max concentration tested 10000 nM) = 81.4
• C=CCN(/C=C1/C(=O)O[C@H](COC)[C@@]2(C)C1=C(O)C(=O)C1=C2[C@H](OC(C)=O)C[C@]2(C)C(=O)CC[C@@H]12)CC=C [Sonolisib] (max concentration tested 10000 nM) = 28.2
• CCC(C)(C)C(=O)O[C@H]1C[C@@H](C)C=C2C=C[C@H](C)[C@H](CC[C@@H]3C[C@@H](O)CC(=O)O3)[C@H]21 [Simvastatin] (max concentration tested 10000 nM) = 68.6
• NC(=O)NO [Hydroxyurea] (max concentration tested 100000 nM) = 3.98
